Where these numbers come from: paper PMC9542353

Provide the recorded melting point for the entries that follow.

INPUT: Sample CCOC(=O)c1ccc(NC(=S)NC(=O)c2ccc(NC(=O)C(C)C)cc2OC)cc1 [Compound 14b] — what was its melting point?
OUTPUT: 245 to 247 °C

INPUT: Sample COc1cc(NC(=O)C(C)C)ccc1C(=O)NC(=S)Nc1ccc(C(=O)O)cc1 [Compound 13b] — what was its melting point?
OUTPUT: 256 to 258 °C

INPUT: Sample `CCOC(=O)c1ccc(NC(=S)NC(=O)c2ccc(Br)cc2)cc1` — what was its melting point?
OUTPUT: 218 to 220 °C

INPUT: Sample `O=C(O)c1ccc(NC(=S)NC(=O)c2ccc(Cl)c(Cl)c2)cc1` — what was its melting point?
OUTPUT: 216 to 218 °C

INPUT: Sample `NS(=O)(=O)c1ccc(NC(=S)NC(=O)c2ccc(Cl)c(Cl)c2)cc1` — what was its melting point?
OUTPUT: 206 to 208 °C

INPUT: Sample CCOC(=O)c1ccc(NC(=S)NC(=O)c2ccccc2)cc1 [Compound 6a, Ethyl-4-(3-benzoylthioureido)benzoate] — what was its melting point?
OUTPUT: 223 to 235 °C

INPUT: Sample `NS(=O)(=O)c1ccc(NC(=S)NC(=O)c2ccc(Cl)cc2)cc1` — what was its melting point?
OUTPUT: 226 to 234 °C

INPUT: Sample CCOC(=O)c1ccc(NC(=S)NC(=O)c2ccc(NC(C)=O)cc2OC)cc1 [Compound 14a] — what was its melting point?
OUTPUT: 237 to 239 °C

INPUT: Sample `CCOC(=O)c1ccc(NC(=S)NC(=O)c2ccc(Cl)cc2)cc1` — what was its melting point?
OUTPUT: 219 to 221 °C

INPUT: Sample COc1cc(NC(=O)c2ccc(C)cc2)ccc1C(=O)NC(=S)Nc1ccc(C(=O)O)cc1 [Compound 13c] — what was its melting point?
OUTPUT: 281 to 283 °C

INPUT: Sample `O=C(O)c1ccc(NC(=S)NC(=O)c2ccccc2)cc1` — what was its melting point?
OUTPUT: 212 to 224 °C

INPUT: Sample `O=C(O)c1ccc(NC(=S)NC(=O)c2ccc(Br)cc2)cc1` — what was its melting point?
OUTPUT: 206 to 215 °C

INPUT: Sample `NS(=O)(=O)c1ccc(NC(=S)NC(=O)c2ccc(Br)cc2)cc1` — what was its melting point?
OUTPUT: 215 to 217 °C

INPUT: Sample CCOC(=O)c1ccc(NC(=S)NC(=O)c2ccc(NC(=O)c3ccc(C)cc3)cc2OC)cc1 [Compound 14c] — what was its melting point?
OUTPUT: 257 to 259 °C

INPUT: Sample COc1cc(NC(=O)C(C)C)ccc1C(=O)NC(=S)Nc1ccc(S(N)(=O)=O)cc1 [Compound 12b] — what was its melting point?
OUTPUT: 248 to 250 °C

INPUT: Sample `CCOC(=O)c1ccc(NC(=S)NC(=O)c2ccc(Cl)c(Cl)c2)cc1` — what was its melting point?
OUTPUT: 216 to 218 °C

INPUT: Sample COc1cc(NC(=O)c2ccc(C)cc2)ccc1C(=O)NC(=S)Nc1ccc(S(N)(=O)=O)cc1 [Compound 12c] — what was its melting point?
OUTPUT: 250 to 252 °C
